- Experimental Setup: in water, 313.15 K
Readout: solubility (mole fraction)

Data request, read-out solubility (mole fraction), for COc1ccc(-n2nc(C(N)=O)c3c2C(=O)N(c2ccc(N4CCCCC4=O)cc2)CC3)cc1
2.31e-05

====

- Experimental Setup: in methanol, 328.15 K
Readout: solubility (mole fraction)

Name the reported solubility (mole fraction) value associated with the molecule COc1ccc(-n2nc(C(N)=O)c3c2C(=O)N(c2ccc(N4CCCCC4=O)cc2)CC3)cc1
0.00188

====

- Experimental Setup: in ethanol, 313.15 K
Readout: solubility (mole fraction)
Answers are plain numbers.

solubility (mole fraction) for COc1ccc(-n2nc(C(N)=O)c3c2C(=O)N(c2ccc(N4CCCCC4=O)cc2)CC3)cc1 ?
0.00033

====

- Experimental Setup: in water, 298.15 K
Readout: solubility (mole fraction)

# query: solubility (mole fraction) of entry COc1ccc(-n2nc(C(N)=O)c3c2C(=O)N(c2ccc(N4CCCCC4=O)cc2)CC3)cc1
1.39e-05

====

- Experimental Setup: in isopropanol, 298.15 K
Readout: solubility (mole fraction)
Numbers only.

Which solubility (mole fraction) value belongs to COc1ccc(-n2nc(C(N)=O)c3c2C(=O)N(c2ccc(N4CCCCC4=O)cc2)CC3)cc1 ?
9.95e-05

====

- Experimental Setup: in isopropanol, 288.15 K
Readout: solubility (mole fraction)

Can you look up the measured solubility (mole fraction) of COc1ccc(-n2nc(C(N)=O)c3c2C(=O)N(c2ccc(N4CCCCC4=O)cc2)CC3)cc1 for me?
6.12e-05

====

- Experimental Setup: in ethanol, 298.15 K
Readout: solubility (mole fraction)
One number for each entry.

Bench note: what solubility (mole fraction) did COc1ccc(-n2nc(C(N)=O)c3c2C(=O)N(c2ccc(N4CCCCC4=O)cc2)CC3)cc1 show?
0.00018
